Value source: paper PMC2756588

test.target: T1, Sla1-2, P32790
T1 sequence (P32790 60-140, looked up): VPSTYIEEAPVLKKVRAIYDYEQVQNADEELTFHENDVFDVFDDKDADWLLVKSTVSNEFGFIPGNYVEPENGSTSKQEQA
test.protocol: SPOT array
condition.context: median of control spots 712
metric.name: SPOT intensity
Keep it simple and answer with nothing but the number.

Below are worked cases with known answers.
Record request: SPOT intensity value, item "TKRKRPARLIFYDSK"
2

Record request: SPOT intensity value, item "KRRAPPPVPKKPSSR"
0

Record request: SPOT intensity value, item "NLKKRPPTAPQRKIS"
3

---
Record request: SPOT intensity value, item "SSSSSPPPLPTRRDH"
0

Record request: SPOT intensity value, item "PSRRAPLQLPQLVNK"
0

Record request: SPOT intensity value, item "KRKRRLPVSEDTNTK"
0

Record request: SPOT intensity value, item "ERPKRRAPPPVPKKP"
0
